These measurements were taken from PubChem BioAssay AID886.

Target: 3-hydroxyacyl-CoA dehydrogenase type-2 (Homo sapiens) (UniProt Q99714)
Sequence (Q99714 whole entry, looked up): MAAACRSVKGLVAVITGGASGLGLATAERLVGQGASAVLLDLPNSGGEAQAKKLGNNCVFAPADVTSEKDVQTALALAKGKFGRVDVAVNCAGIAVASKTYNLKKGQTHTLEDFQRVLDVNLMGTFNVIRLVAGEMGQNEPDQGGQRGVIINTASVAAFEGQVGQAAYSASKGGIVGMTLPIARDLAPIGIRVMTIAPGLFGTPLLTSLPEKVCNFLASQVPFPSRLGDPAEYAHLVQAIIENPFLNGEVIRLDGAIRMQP
Sequence (Q99714 whole entry, looked up): as above
Test: qHTS Assay for Inhibitors of HADH2 (Hydroxyacyl-Coenzyme A Dehydrogenase, Type II); further: nearly all actives have a fitted effect of over 60% in size
Details: recombinant HADH2, NADH fluorescence, beta-hydroxybutyryl-CoA; series mostly up to 57.1 µM
In all, about 73,000 compounds went through this assay and about 2,500 (3.4%) were called active. Inconclusive results (about 7%) are left out. The call rests on the fitted dose curve; in most records, active means well fitted inhibition curve with a large enough effect; inconclusive means small, poorly fitted or top-dose-only effect; inactive means no such curve, though single readings can be large or run the other way. The entries come from a sample that favours actives as a whole.
One label from this list, please: active, inactive

Past entries and their recorded results:
Ask: Answer briefly: the call reported for CC(N)=NCc1cccc(CN)c1 in this assay.
Result: inactive

Ask: Answer briefly: the call reported for C[C@@H]1O[C@@H](O[C@@H]2[C@@H](O)[C@H](OCCc3ccc(O)c(O)c3)O[C@H](CO[C@@H]3O[C@H](CO)[C@@H](O)[C@H](O)[C@H]3O)[C@H]2OC(=O)/C=C/c2ccc(O)c(O)c2)[C@H](O)[C@H](O)[C@H]1O in this assay.
Result: active

***
Ask: Answer briefly: the call reported for CCc1ccc(NC(=O)CSc2nc3ccccc3c(=O)n2CCN2CCOCC2)cc1 in this assay.
Result: inactive

Ask: Answer briefly: the call reported for CN(C)C(=O)/N=N\C(=O)N(C)C in this assay.
Result: active

Ask: Answer briefly: the call reported for CN1CCN2c3ccccc3Cc3ccccc3[C@@H]2C1 in this assay.
Result: inactive

Ask: Answer briefly: the call reported for CCOC(=O)c1cc2n(c1C)-c1ccccc1C2=O in this assay.
Result: inactive

Ask: Answer briefly: the call reported for CC(C)NC(=O)N1CCC2(CC1)CCN(C(=O)c1cccn1C)CC2 in this assay.
Result: inactive

----------
Target: 3-hydroxyacyl-CoA dehydrogenase type-2 (Homo sapiens)
Experiment: qHTS Assay for Inhibitors of HADH2 (Hydroxyacyl-Coenzyme A Dehydrogenase, Type II); further: nearly all actives have a fitted effect of over 60% in size
Conditions: recombinant HADH2, NADH fluorescence, beta-hydroxybutyryl-CoA; series mostly up to 57.1 µM
Description: Assay Overview: NIH Molecular Libraries Screening Centers Network [MLSCN] NIH Chemical Genomics Center [NCGC] Structural Genomics Consortium [SGC] […] An increase in the fluorescence intensity due to conversion of NAD+ to NADH was used to measure the enzyme activity. Assay Protocol: Buffer: 100 mM Tris-HCl pH 9.0, containing 0.01 % Tween-20. […] The fluorescence intensity difference between the last and the first time points was used to compute reaction progress.
The whole screen tested about 73,000 compounds, of which about 2,500 (3.4%) were called active. Not shown: some 7% with an inconclusive outcome. Calls follow the shape of the dose curve; as a rule, active = well fitted inhibition curve with a large enough effect; inconclusive = small, poorly fitted or top-dose-only effect; inactive = no such curve, though single readings can be large or run the other way. Many of the other results were omitted from the sample, so actives are more common in it than they were.
One label from this list, please: active, inactive

Past entries and their recorded results:
Ask: Answer briefly: the call reported for CCOC(=O)c1[nH]c2ccc(OC)cc2c1NC(=O)N1CCOCC1 in this assay.
Result: active

Ask: Answer briefly: the call reported for O=C(Nc1nncs1)c1ccccc1NS(=O)(=O)c1cccs1 in this assay.
Result: active

***
Ask: Answer briefly: the call reported for COC(=O)C(C)Sc1ccc2nnc(-c3cccc(F)c3)n2n1 (stereo unspecified) in this assay.
Result: active

Ask: Answer briefly: the call reported for Cc1c(C(=O)N2CCOCC2)[nH]c2ccc(OCc3ccccc3)cc12 in this assay.
Result: inactive

Ask: Answer briefly: the call reported for COc1ccc(C(=O)Nc2nncs2)c(OC)c1 in this assay.
Result: inactive

Ask: Answer briefly: the call reported for CC1CCN(C(=O)CSc2ccc3nnc(-c4cccc(F)c4)n3n2)CC1 in this assay.
Result: inactive
